Entries and their inhibition of 3H-benzodiazepine binding
System: brain-specific receptors
assay: inhibition of 3H-benzodiazepine (3H-flunitrazepam) binding to brain-specific receptors
Design: species or system rat (Wistar strain)
recorded_conditions: 1 μM test compound (activity criterion), rat cortex P2 fraction, 0° C., 30 minutes
Your answer is read as %, so omit the unit and give the number.

>>> quantitative_result("N#Cc1ncn2c(-c3cccnc3)ccnc12 [Example 5]")
19
>>> quantitative_result("CCOC(=O)c1ncn2c(-c3cccnc3)ccnc12 [Example 15]")
49
>>> quantitative_result("N#Cc1ncn2c(-c3cccs3)ccnc12 [Example 1]")
39

Here's the next entry for you.
Field inhibition of 3H-benzodiazepine binding (entry N#Cc1ncn2c(-c3ccsc3)ccnc12 [Example 2] ) reads 20
